test-system: T1, HTRA3, P83110
T1 sequence (P83110 354-453, limits assumed, looked up): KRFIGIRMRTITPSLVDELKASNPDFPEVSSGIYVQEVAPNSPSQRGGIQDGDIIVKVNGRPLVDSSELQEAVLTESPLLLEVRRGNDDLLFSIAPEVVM
method-summary: holdup assay
Parameters: key: below the threshold = too weak to quantify, mostly under pKd 3.1 to 4
conditions: plain residues with an end cap or a label only (N-terminal biotin on a linker: ado-ado)
readout-type: pKd

TRKRSGEAAV [PFKM, P08237]; below the threshold
RDPPAEWTRV [PTPN18, Q99952]; below the threshold
ARGPPRESEV [FAM110D, Q8TAY7]; below the threshold
